pKi reference
Target: PADI4 (Homo sapiens)
Construct: His6; made in house
Sequence (Q9UM07 whole entry): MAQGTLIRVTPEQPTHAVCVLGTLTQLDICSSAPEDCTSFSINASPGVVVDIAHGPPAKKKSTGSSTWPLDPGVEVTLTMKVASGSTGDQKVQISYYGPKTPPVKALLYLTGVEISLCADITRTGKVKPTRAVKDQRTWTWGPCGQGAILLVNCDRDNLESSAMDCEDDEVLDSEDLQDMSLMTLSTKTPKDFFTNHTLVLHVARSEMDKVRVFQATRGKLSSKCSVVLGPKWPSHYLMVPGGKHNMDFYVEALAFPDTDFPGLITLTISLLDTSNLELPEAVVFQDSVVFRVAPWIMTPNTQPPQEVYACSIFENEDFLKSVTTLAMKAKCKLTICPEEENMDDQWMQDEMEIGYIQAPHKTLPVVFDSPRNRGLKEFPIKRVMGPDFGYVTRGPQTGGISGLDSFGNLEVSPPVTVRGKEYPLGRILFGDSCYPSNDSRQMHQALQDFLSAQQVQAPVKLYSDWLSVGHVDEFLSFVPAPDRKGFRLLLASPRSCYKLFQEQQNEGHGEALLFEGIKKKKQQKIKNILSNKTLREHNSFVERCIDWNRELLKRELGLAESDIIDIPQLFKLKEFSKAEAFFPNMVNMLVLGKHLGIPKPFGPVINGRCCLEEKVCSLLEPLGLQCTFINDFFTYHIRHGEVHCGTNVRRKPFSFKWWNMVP
Experiment: Surface plasmon resonance (SPR), single cycle kinetics
Format: binding
Conditions: two-state reaction model, k-1/k+1
pKi: −log10 of the molar value. *1 amine or outer side, *2 acyl side, *3 side chain or, on linkers, in order; H or OH if unused. Where a SMILES comes first, the peptide text is derived from it. Bridges are numbered along the chain shown (N, C = ends). [ ]: non-standard residue; d: D form. Orn(fluoroacetimidoyl) = N=C(CF)NCCC[C@H](N)C(=O)O; X1 = N=C(CCl)NCCC[C@H](N[*:1])C(=O)[*:2]
attribute_measured: pKi

>>> recorded_result("N=C(N)NCCC[C@@H]1NC(=O)[C@H](CCCNC(=N)CCl)NC(=O)[C@H](CC(=O)O)NC(=O)[C@H](Cc2ccc(O)cc2)NC(=O)[C@H](CCCCN)NC(=O)[C@H](CO)NC(=O)[C@@H](Cc2ccc(O)cc2)NC(=O)CSC[C@@H](C(=O)NCC(N)=O)NC(=O)[C@H](CC(=O)O)NC(=O)[C@H](CCCNC(=N)N)NC(=O)[C@@H]2CCCN2C(=O)[C@H](CO)NC1=O [Cl4] ({CH2CO}-[dY]SKYD[X1]RSPRDCG-NH2; thioether N-12)")
5.40
>>> recorded_result("CC[C@H](C)[C@@H]1NC(=O)[C@@H](Cc2ccc(O)cc2)NC(=O)CSC[C@@H](C(=O)NCC(N)=O)NC(=O)[C@H]([C@@H](C)O)NC(=O)[C@H](C(C)C)NC(=O)[C@H](CC(=O)O)NC(=O)[C@H](CCCNC(=N)CF)NC(=O)[C@H](CC(C)C)NC(=O)[C@H](CC(=O)O)NC(=O)[C@H](Cc2c[nH]c3ccccc23)NC1=O [cP4_13] ({CH2CO}-[dY]IWDL[Orn(fluoroacetimidoyl)]DVTCG-NH2; thioether N-10)")
5.37
>>> recorded_result("CC(C)C[C@@H]1NC(=O)[C@H](CCCCN)NC(=O)[C@H](CO)NC(=O)[C@H](CO)NC(=O)[C@H](Cc2ccc(O)cc2)NC(=O)[C@H](Cc2c[nH]cn2)NC(=O)[C@H](CCCNC(=N)CF)NC(=O)[C@H](CC(=O)O)NC(=O)[C@H](CC(C)C)NC(=O)[C@@H](Cc2ccc(O)cc2)NC(=O)CSC[C@@H](C(=O)NCC(N)=O)NC(=O)[C@H](Cc2ccc(O)cc2)NC1=O [cP4_15, yLD(2)HYSSKLYCG] ({CH2CO}-[dY]LD[Orn(fluoroacetimidoyl)]HYSSKLYCG-NH2; thioether N-12)")
6.80
